Molecular target: T1, human HVEM (human, UniProt Q92956 39-202, limits assumed); note: test concentration or dose not given here
T1 sequence (looked up): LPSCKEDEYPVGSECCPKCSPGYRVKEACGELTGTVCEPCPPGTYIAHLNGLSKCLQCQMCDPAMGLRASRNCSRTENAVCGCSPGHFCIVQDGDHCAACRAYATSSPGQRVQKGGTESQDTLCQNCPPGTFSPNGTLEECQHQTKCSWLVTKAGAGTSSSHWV
Experiment: ELISA
So I've got a bunch of binders here, and I need their ELISA signal values.
Answer with a bare number; do not write a unit.

Report measured ELISA signal; entry is Ab_001 (H5S14-1A1A) (antibody, V domains shown, also called Ab_1) VH: DVKLVESGGGLVKPGGSLKLSCAASVFTFSRYTMSWVRQTPEKRLEWVATISSGGSYTYYPDSVKGRFTISRDNAKNTLYLQMSSLKSEDTAIYYCTRGGDGLFDYWGQGTALTVSS VL: DVQITQSPSYLAASPGETITINCRASKSISKYLAWYQEKPGKTNQLLIYSGSTLQSGIPSRFSGSGSGTDFTLTISSLEPEDFAMYYCQQHNEYPWTFGGGTKLEIK
3.3

Report measured ELISA signal; entry is Ab_037 (H5S15-13A15A) (antibody, V domains shown, also called Ab_37) VH: QVQLKQSGPGLVQPSQSLSITCTVSGFSLTSYGVHWVRQSPGKGLEWLGVIWRGGSTDYNAAFMSRLSITKDNSKSQVFFKMNSLQADDTAIYYCAKTGFAYWGQGTLVTVSA VL: QIVLTQSPAIMSASPGEKVTMTCSASSSVSYMHWYQQKSGTSPKRWIYDTSKLASGVPARFSGSGSGTSYSLTISSMEAEDAATYYCQQWSSNPLTFGAGTKLELK
0.059

Report measured ELISA signal; entry is Ab_033 (H5S15-7B8A) (antibody, V domains shown, also called Ab_33) VH: QIQLVQSGPELKKPGETVKISCKASGYTFTNYGMNWVKQAPGKGLKWVGWINTYTGEPTYADDFKGRFAFSLETSASTAYLQINNLKNEDMATYFCARSFYGSEAYWGQGTLVTVSA VL: QIVLTQSPAIMSASLGEEITLTCSASSSVSFMHWYQQKSGTSPKLLIYSTSNLASGVPSRFSGSGSGTFYSLTISSVEAEDAADYYCHQWSSYLWTFGGGAKLEIK
3.1
